Experiment: Stability assessment by HPLC after storage
Assay type: physicochemical
Settings: initial, before storage
Where a name gives a salt, the structure may show the parent alone.
assay-endpoint: HPLC analysis result, Initial (%)
API: value field is a number in %; no unit string.

Lab book: HPLC analysis result, Initial of CC(C)C(=O)N([C@H]1C[C@@H](C(=O)N2CCOCC2)N(C(=O)[C@@H]2CN(C(C)(C)C)C[C@H]2c2ccc(Cl)cc2)C1)[C@H]1CC[C@@H](C)CC1 [Example 1, hydrochloride] noted as 97.7
